- study_target: SMARCA2-HiBiT (Homo sapiens)
- Construct: SMARCA2-HiBiT knock-in Hela monoclonal cell (CS302366); host or cells: HeLa monoclonal knock-in line (CRISPR HiBiT knock-in at the endogenous locus, heterozygous)
- Sequence (P51531 whole entry): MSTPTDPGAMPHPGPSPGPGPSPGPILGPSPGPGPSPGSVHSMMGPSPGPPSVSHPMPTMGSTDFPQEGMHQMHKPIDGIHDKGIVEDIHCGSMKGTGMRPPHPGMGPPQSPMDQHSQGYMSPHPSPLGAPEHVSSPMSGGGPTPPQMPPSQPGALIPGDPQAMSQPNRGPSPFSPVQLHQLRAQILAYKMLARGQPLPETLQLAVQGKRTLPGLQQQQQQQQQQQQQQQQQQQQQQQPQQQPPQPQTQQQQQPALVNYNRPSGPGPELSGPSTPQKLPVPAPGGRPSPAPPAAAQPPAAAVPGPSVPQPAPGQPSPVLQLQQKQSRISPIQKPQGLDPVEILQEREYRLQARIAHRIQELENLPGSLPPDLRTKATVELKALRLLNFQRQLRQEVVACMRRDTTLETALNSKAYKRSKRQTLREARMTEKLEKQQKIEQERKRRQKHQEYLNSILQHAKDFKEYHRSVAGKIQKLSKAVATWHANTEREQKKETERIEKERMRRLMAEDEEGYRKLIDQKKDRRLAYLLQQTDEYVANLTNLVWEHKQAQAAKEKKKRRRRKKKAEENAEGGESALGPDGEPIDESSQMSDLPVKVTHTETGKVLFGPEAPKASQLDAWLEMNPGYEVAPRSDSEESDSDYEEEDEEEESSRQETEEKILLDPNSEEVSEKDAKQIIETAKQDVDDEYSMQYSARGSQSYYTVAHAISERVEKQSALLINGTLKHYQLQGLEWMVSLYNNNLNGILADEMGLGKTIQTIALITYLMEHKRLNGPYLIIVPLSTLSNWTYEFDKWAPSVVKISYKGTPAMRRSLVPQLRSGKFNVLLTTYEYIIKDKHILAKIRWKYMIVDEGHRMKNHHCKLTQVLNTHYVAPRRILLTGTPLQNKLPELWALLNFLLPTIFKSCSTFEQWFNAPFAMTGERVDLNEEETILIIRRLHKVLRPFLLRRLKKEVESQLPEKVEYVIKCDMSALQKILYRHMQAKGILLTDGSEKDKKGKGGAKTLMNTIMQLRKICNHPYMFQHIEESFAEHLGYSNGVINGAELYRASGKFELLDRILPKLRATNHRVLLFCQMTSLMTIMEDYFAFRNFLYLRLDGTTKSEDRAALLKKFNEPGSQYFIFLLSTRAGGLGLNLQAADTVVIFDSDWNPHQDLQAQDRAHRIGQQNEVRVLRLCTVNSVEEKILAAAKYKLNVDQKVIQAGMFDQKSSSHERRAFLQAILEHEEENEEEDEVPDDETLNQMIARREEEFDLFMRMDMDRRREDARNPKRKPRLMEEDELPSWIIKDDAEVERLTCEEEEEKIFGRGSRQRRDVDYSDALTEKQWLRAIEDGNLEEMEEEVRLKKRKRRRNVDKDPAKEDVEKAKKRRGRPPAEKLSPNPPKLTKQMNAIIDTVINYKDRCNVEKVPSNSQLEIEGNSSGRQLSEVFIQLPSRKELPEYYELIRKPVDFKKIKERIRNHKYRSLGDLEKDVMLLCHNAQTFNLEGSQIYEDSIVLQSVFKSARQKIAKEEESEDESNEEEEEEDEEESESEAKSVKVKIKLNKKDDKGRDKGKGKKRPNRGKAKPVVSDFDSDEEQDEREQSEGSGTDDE
- experiment_summary: SMARCA2 HiBiT degradation assay in HeLa cells
- Format: cell-based
- measurement_setup: 18 hours incubation, read-out: HeLa_HiBit-SM2 DC50
reported_property: DC50

[Q] Requested read-out: DC50. Entry: O=C1CCC(N2Cc3cc(C4CCN(C5CCCN(CCN6CCN7c8cc(-c9ccccc9O)nnc8NC[C@H]7C6)C5)CC4)ccc3C2=O)C(=O)N1 (stereo partly drawn) [Example 211]
[A] < 10 nM

[Q] What about CC(C)(C)C(=O)OCN1C(=O)CCC(N2C(=O)c3cccc(N4CCC(N5CCC(N6CCN7c8cc(-c9ccccc9O)nnc8NC[C@H]7C6)CC5)CC4)c3C2=O)C1=O (stereo partly drawn) [Example 123] ?
[A] < 10 nM

[Q] What about O=C1CCC(N2C(=O)c3ccc(N4CCC(CN5CCC(CN6CCN7c8cc(-c9ccccc9O)nnc8NC[C@H]7C6)C5)CC4)cc3C2=O)C(=O)N1 (stereo partly drawn) [Example 33] ?
[A] < 10 nM

From: patent US12448389B2
